Some binders, each annotated with its measured Kd.
Molecular target: T1, His-tagged cynomolgus monkey CD38 (ACRO Biosystems cat #CD8-05223) (cynomolgus monkey, UniProt Q5VAN0 43-301)
T1 construct: bought recombinant protein with His tag
Experiment: SPR, captured scFv-Fc, His-CD38 analyte;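 note: SPR on a Carterra LSA, scFv-Fc captured by anti-human Fc on HC30M chip, His-tagged CD38 (human, mouse, cynomolgus) flowed as analyte in eight 1:2 steps from 400 nM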
parameter: Kd (nM)

{"binder": "40617p1.2.A3 (scFv, V domains shown, tested as scFv-Fc supernatant) VH: EVQLLESGGGLVQPGGSLRLSCAASGFTFSNYWMTWVRQAPGKGLEWVSAISSYGGNYIYYADSVKGRFTISRDNSKDTLYLQMNSLRAEDTAVYYCAKDWDDGMDVWGQGTTVTVSS VL: EIVMTQSPAVLSVSPGERATLSCRASQSVNSKLAWYQQKPGQAPRLLIYGASTRAAGIPDRFSGSGSGTDFTLTISSPQSEDFAVYYCQHYYDLPPYSFGGGTKVEIK", "parameter": "Kd", "units text": "nM", "recorded value": 92.8}
{"binder": "40769p1.2.E3 (scFv, V domains shown, tested as scFv-Fc supernatant) VH: EVQLLESGGDLVQPGGSLRLSCGASGFTFSDHYMSWVRQAPGKGLEWVADISARGSNTWYADSVKGRFTISRDNSENTLYLQMNSLRAEDTAVYYCAKNWNYNYGMDVWGQGTTVTVSS VL: QSVLTQAPSASGTPGQRVTISCSGSSIQNNYVSWYQQLPGTAPKLLIYRNFERPSGVPDRFSASKSGTSASLAISGLQSEDEADYYCASWDDSLNWVFGGGTKLTVL", "parameter": "Kd", "units text": "nM", "recorded value": 2.11}
{"binder": "40769p1.1.E2 (scFv, V domains shown, tested as scFv-Fc supernatant) VH: EVLLLESGGGLVQPGGSLRLSCAASGFTFSDYWMSWVRQAPGKGLEWVSTISISAGIIYYADSVKGRFTISRDNSKNTLYLQMNSLRAEDTAVYYCAKDNWNDYYGMDVWGQGTTVTVSS VL: QSVLTQPPSASGTPGQRVTMSCSGNNQNIRDNYVYWYQQVPGTAPKLLIYKDDQRPSGVPDRFSGSKSGTSASLAISGLQSEDEADYYCATWDGSLKARVFGGGTKLTVL", "parameter": "Kd", "units text": "nM", "recorded value": 4.4}
{"binder": "40769p1.1.G10 (scFv, V domains shown, tested as scFv-Fc supernatant) VH: EVQLLESGGGLVQPGGSLRLSCAASGFTFSDYWMNWVRQAPGKGLEWVSTISSGGSMIYHADSVKGRFTISRDNSKNTLYLQMNSLRPEDTAVYYCAKDNWNDYYGMDVWGQGTTVTVSS VL: QSVLTQPPSASGTPGQRVNISCSGSSSNIRYNYVYWYQQVPGTAPKLLIYKDDQRPSGVPDRFSGSESGTSASLAISGLQSEDEADYYCATWDGSLNARVFGGGTKLTVL", "parameter": "Kd", "units text": "nM", "recorded value": 154}
{"binder": "40596p1.B1 (scFv, V domains shown, tested as scFv-Fc supernatant) VH: EVQLLESGGGLVEPGGSLRLSCAASGFDFSTYAMTWVRQAPGKGLEWVAGNGWSGSFIYYADSVKGRFTISRDNSKNTLYLQMNSLRAEDTAVYYCTRNPGFGEMDVWGQGTTVTVSS VL: EIVLTQSPGTLRLSPGERATLSCKASQTVGTTLAWYQQKPGQAPRLLIYGASTRATGIPDRFSGSGSGTEFTLTISSLQSEDFADYYCQQYKSWPPLTFGGGTKVEIK", "parameter": "Kd", "units text": "nM", "recorded value": 110}
